Read-out: Interferon-gamma inducible Protein 10 (IP10), CXCL10 (gene 3627)
Assay: BSK_KF3CT_IP10: BioMAP Diversity Plus: KF3CT Assay for Interferon-gamma inducible Protein 10 (IP10) Biomarker Activity (AID 2283068)
Settings: primary human keratinocytes with fibroblasts; actives raise or lower the signal
Experimental: BSK_KF3CT is a cell-based, multiplexed-readout assay that uses keratinocytes and foreskin fibroblasts, a human skin primary cell co-culture, with measurements taken at 24 hours after chemical dosing in a 96-well plate.BSK_KF3CT_IP10 is an assay component measured in the BSK_KF3CT assay. It measures IP-10 antibody related to regulation of gene expression using ELISA technology.Data from the assay component BSK_KF3CT_IP10 was analyzed into 1 assay endpoint. […]
Activity calls are given as the source filed them. How the source made its calls: active means hit-call score of the fitted dose curve at least 0.9, where 1 is the maximum; inactive means score below 0.9.
Field 'call' accepts active, inactive

As a guide, the following entries are already answered.
>>> print(df.to_string())
                                   compound  class_name
0  C[C@H]1[C@H](c2ccc(Cl)cc2)SC(=O)N1C(=O)NC1CCCCC1    inactive
1  COC(=O)c1ccccc1CS(=O)(=O)NC(=O)Nc1nc(OC)cc(OC)n1    inactive
2  CCCN(CCC)c1c([N+](=O)[O-])cc(C(F)(F)F)cc1[N+](=O)[O-]      active
3  CC1(c2ccc(Oc3ccccc3)cc2)OC(=O)N(Nc2ccccc2)C1=O (stereo not drawn)    inactive
4  CC(C)(C)C(O)/C(=C\c1ccc(Cl)cc1Cl)n1cncn1 (stereo not drawn)      active
5                      CNC(=O)CSP(=S)(OC)OC    inactive
6  COC(=O)c1ccccc1S(=O)(=O)NC(=O)Nc1nc(C)nc(OC)n1    inactive
7          Clc1ccccc1-c1nnc(-c2ccccc2Cl)nn1    inactive

Data request: Could you kindly confirm the outcome this assay logged for `N#CN` ?
Data returned: inactive

Data request: Could you kindly confirm the outcome this assay logged for CCC(C)Nc1c([N+](=O)[O-])cc(C(C)(C)C)cc1[N+](=O)[O-] (stereo not drawn) ?
Data returned: inactive

Data request: Could you kindly confirm the outcome this assay logged for `CCN(CC)C(=O)SCc1ccc(Cl)cc1` ?
Data returned: inactive

Data request: Could you kindly confirm the outcome this assay logged for O=S1OCC2C(CO1)C1(Cl)C(Cl)=C(Cl)C2(Cl)C1(Cl)Cl (stereo not drawn) ?
Data returned: active

Data request: Could you kindly confirm the outcome this assay logged for `CCOCN(C(=O)CCl)c1c(C)cccc1CC` ?
Data returned: active

* * *

Assay: CEETOX_H295R_ESTRONE: CeeTox H295R High-throughput Steroidogenesis Assay for Estrone (AID 2283441);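 further: estrone secreted into medium measured by LC-MS/MS after dansyl derivatization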
Settings: actives raise or lower the signal
Method: CEETOX_H295R is a cell-based, multiplexed-readout assay that uses H295R, a human adrenal gland cell line, with measurements taken at 48 hours after chemical dosing in a 96-well plate.CEETOX_H295R_ESTRONE is one of 23 assay component(s) measured or calculated from the CEETOX_H295R assay. […] This assay endpoint, CEETOX_H295R_ESTRONE, was analyzed with bidirectional fitting relative to DMSO as the negative control and baseline of activity. […]
Activity calls are given as the source filed them. The calls were made as follows: active = hit-call score of the fitted dose curve at least 0.9, where 1 is the maximum; inactive = score below 0.9.
Field 'call' accepts active, inactive

>>> print(df.to_string())
                                   compound  class_name
0  CCC(C)Nc1c([N+](=O)[O-])cc(C(C)(C)C)cc1[N+](=O)[O-] (configuration not stated)    inactive
1               CNC(=O)/C=C(\C)OP(=O)(OC)OC    inactive
2                CNC(=O)Oc1cccc(N=CN(C)C)c1    inactive
3                  CC(C)OC(=O)Nc1cccc(Cl)c1      active
4  CC(C)N(C(=O)COc1nnc(C(F)(F)F)s1)c1ccc(F)cc1    inactive
5                    CNC(=O)Oc1ccccc1OC(C)C    inactive

Query compound follows.
Data request: Could you kindly confirm the outcome this assay logged for `Clc1ccccc1-c1nnc(-c2ccccc2Cl)nn1` ?
Data returned: inactive
